# target: T1, human TL1A (Fitzgerald #30R-AT070) (human, UniProt O95150 72-251, limits assumed)
# T1 construct: Coated on the ELISA plate at 1 ug/mL; also called TNFSF15
# T1 sequence (looked up): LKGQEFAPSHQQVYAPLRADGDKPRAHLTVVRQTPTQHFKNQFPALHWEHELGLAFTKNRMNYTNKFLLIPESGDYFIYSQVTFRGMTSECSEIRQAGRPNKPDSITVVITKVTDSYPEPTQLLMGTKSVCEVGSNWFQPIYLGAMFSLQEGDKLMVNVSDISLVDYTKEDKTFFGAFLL
# testSummary: ELISA titration, coated human TL1A, culture supernatant
Below, each of the binders is paired with its reported Kd value.
Express it in pM; write the number only.

INSERT INTO assay_data (binder, propertymeasured, numericvalue) VALUES
  ('A33 (antibody, V domains shown) VH: DVQLVQSGAEVKKPGASVKVSCKASGFDIQDTYMHWVRQAPGQGLEWMGRIEPASGHIKYDPKFQGRVTMTRDTSTSTVYMELSSLRSEDTAVYYCARSGGLPDWWGQGTTVTVSS VL: EIVLTQSPGTLSLSPGERATLSCRASSSVSYMYWYQQKPGQAPRLLIYATSNLASGIPDRFSGSGSGTDFTLTISRLEPEDFAVYYCQQWEGNPRTFGGGTKLEIK', 'Kd', 81);

Continue with the next binder.
IN: Quick one: Kd for A153 (antibody, human IgG1, V domains shown, human IgG1/kappa (pFuse vectors), culture supernatant) VH: QVQLVQSGAEVKKPGASVKVSCKASGFDIQDTYMHWVRQAPGQGLEWMGRIEPASGHIKYDPKFQGRVTMTRDTSTSTAYMELSSLRSEDTAVYYCARSGGLPDWWGQGTTVTVSS VL: EIVLTQSPGTLSLSPGERATLSCRASSSVSYMYWYQQKPGQAPRPWIYATSNLASGIPDRFSGSGSGTDFTLTISRLEPEDFAVYYCQQWEGNPRTFGGGTKLEIK ?
OUT: 49
